# Tested On: T1, human SEMA4D, full length, on CHO-K1 cells (CHO-K1 hSEMA4D) (human, UniProt Q92854 22-862)
# T1 construct: whole, on cells; also called human SEMA4D recombinant cells
# T1 sequence (looked up): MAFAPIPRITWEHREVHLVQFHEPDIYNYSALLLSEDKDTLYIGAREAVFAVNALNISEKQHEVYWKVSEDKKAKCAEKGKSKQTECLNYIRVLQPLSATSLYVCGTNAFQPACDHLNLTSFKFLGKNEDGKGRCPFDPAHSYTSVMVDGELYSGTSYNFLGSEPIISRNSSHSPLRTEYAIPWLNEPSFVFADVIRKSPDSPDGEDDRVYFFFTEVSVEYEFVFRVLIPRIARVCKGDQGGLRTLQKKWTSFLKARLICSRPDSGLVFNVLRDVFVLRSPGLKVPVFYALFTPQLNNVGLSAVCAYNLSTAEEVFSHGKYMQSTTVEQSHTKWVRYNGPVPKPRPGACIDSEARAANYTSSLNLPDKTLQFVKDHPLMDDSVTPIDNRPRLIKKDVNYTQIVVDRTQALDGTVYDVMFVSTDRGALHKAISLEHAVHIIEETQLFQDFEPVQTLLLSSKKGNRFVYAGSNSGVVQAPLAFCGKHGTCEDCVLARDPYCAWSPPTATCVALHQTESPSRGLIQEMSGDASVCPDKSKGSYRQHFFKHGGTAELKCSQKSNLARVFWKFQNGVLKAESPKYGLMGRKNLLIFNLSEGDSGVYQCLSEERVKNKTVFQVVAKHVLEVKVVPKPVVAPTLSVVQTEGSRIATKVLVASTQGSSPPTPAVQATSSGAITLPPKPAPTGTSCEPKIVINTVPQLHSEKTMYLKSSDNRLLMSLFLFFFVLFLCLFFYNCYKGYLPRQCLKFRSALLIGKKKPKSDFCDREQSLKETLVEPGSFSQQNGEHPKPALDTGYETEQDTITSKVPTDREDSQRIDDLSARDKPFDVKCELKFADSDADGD
# Assay: FACS, CHO-K1 hSEMA4D cells; Ab 0.107 nM
Catalogue of MFI readings, one per entry.
Format: numeric value only, no unit, no commentary.

>>> measured_value("37C4F7 (antibody, V domains shown, Mouse monoclonal antibody purified from hybridoma supernatant on protein A) VH: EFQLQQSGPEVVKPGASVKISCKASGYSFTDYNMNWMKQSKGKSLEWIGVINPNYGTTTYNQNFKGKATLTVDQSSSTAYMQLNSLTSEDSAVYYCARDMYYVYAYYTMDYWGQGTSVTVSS VL: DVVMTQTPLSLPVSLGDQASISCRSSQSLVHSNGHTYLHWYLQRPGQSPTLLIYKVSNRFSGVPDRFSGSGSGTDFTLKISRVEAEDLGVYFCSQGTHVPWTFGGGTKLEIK")
210
>>> measured_value("38H2E3 (antibody, V domains shown, Mouse monoclonal antibody purified from hybridoma supernatant on protein A) VH: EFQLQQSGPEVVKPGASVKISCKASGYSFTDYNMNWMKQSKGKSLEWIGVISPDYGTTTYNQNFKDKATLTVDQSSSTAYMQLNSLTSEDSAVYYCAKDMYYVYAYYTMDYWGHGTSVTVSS VL: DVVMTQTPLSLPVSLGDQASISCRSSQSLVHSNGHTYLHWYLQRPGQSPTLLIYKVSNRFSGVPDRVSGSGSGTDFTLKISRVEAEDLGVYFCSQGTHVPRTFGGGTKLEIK")
215
>>> measured_value("31G10C5 (antibody, V domains shown, Mouse monoclonal antibody purified from hybridoma supernatant on protein A) VH: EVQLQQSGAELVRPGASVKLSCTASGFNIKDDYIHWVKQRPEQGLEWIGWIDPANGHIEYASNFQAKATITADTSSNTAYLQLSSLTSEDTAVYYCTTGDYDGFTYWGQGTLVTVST VL: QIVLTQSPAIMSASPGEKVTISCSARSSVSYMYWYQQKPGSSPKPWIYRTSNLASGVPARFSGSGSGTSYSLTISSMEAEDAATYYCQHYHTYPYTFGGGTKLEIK")
855

Turning to the following binder.
Req: Request the reported MFI associated with 42B7G2 (antibody, V domains shown, Mouse monoclonal antibody purified from hybridoma supernatant on protein A) VH: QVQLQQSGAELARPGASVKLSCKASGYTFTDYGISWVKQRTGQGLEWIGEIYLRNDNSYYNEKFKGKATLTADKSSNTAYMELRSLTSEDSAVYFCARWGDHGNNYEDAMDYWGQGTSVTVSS VL: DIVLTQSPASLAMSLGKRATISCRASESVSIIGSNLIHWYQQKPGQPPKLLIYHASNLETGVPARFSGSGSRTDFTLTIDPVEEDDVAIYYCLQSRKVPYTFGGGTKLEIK
Resp: 598
